Hi there, I'd appreciate the recorded Ki for every entry that follows.
- MEASURED ON: Acetylcholinesterase (Electrophorus electricus)
- Sequence (O42275 whole entry): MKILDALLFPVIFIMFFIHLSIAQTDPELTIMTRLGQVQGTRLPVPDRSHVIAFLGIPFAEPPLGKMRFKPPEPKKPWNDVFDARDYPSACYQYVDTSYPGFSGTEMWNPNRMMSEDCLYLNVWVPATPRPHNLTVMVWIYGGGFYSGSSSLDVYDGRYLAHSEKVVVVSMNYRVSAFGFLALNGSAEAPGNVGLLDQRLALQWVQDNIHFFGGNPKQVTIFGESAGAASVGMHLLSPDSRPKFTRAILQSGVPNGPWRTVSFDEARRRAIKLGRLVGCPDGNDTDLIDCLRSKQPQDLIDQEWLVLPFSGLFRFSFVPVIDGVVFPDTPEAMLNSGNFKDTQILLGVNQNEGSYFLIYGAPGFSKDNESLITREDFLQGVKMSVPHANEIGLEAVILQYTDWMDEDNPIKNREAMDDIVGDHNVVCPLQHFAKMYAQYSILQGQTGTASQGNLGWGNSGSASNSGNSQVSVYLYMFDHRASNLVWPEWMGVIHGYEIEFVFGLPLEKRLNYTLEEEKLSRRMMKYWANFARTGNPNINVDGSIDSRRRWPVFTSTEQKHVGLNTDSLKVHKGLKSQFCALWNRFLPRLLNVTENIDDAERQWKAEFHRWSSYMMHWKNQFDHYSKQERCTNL
- EXPERIMENT NOTES: Competitive Inhibition of Electrophorus electricus acetylcholinesterase using acetylthiocholine iodide as substrate preincubated for 20 mins followed by substrate addition measured for 30 mins by Ellman's method
Numbers only, in µM.

| SMILES RECORD | UNIT NAME | OBSERVED RESULT |
| --- | --- | --- |
| C#CCOC(=O)C[C@]1(C)[C@H]2CC[C@@H]3[C@H]4[C@H]5OC[C@@]4(CCC5(C)C)CC[C@@]3(C)[C@]2(C)CC[C@H]1C(C)(C)C(=O)OCC#C | µM | 10.5 |

Can you share its Ki? I mean this compound: C#CCOC(=O)CC[C@]1(C)[C@H]2CC[C@@H]3[C@H]4[C@H]5OC[C@@]4(CCC5(C)C)CC[C@@]3(C)[C@]2(C)CC[C@H]1C(=C)C
3.33

###

- MEASURED ON: Acetylcholinesterase (Electrophorus electricus)
- EXPERIMENT NOTES: Inhibition of Electrophorus electricus acetylcholinesterase using acetylthiocholine iodide as substrate preincubated for 20 mins followed by substrate addition measured for 30 mins by Ellman's method
READOUT NAME: pKi
One number for each entry, as −log10 of the molar value.

Can you share its pKi? I mean this molecule: C=C(C)[C@@H]1CC[C@]2(C)[C@H](CC[C@@H]3[C@H]4[C@H]5OC[C@@]4(CCC5(C)C)CC[C@]32C)[C@@]1(C)CCC(=O)O
4.50

###

- MEASURED ON: UniProt P81908
- Sequence (P81908 whole entry): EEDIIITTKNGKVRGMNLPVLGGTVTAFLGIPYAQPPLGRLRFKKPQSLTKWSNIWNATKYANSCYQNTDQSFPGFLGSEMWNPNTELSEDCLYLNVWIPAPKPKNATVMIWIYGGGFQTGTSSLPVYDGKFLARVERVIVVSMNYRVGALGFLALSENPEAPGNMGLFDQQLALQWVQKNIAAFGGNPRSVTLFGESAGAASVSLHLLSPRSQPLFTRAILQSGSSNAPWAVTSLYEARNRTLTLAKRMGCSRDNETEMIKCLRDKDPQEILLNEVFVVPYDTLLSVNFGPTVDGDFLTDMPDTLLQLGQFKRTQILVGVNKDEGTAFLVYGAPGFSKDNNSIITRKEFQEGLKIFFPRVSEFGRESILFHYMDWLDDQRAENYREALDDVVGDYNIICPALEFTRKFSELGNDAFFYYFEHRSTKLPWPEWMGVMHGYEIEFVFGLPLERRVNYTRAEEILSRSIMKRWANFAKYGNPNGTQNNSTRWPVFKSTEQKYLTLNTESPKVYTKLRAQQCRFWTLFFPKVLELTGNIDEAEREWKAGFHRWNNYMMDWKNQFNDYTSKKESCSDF
- EXPERIMENT NOTES: Inhibition of equine serum butyrylcholinesterase using butyrylthiocholineidioide as substrate preincubated for 20 mins followed by substrate addition measured for 30 mins by Ellman's method
READOUT NAME: IC50 (nM)
Give bare numbers, in nM.

IC50 lookup needed for N[C@@H](CO)C(=O)O , thanks.
16
